B1: HDAC6 (parent)
chain: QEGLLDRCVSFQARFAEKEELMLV

- Variants of: B1
- method summary: protein stability index of a GFP-peptide fusion (GPS, HEK-293T) (PSI 1-6); higher = more stable;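 further: lentivirally expressed fusions sorted by FACS into six bins by GFP to DsRed ratio, PSI derived from sequencing read proportions per bin multiplied by bin number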
- measurement context: c terminus: a fixed tail appended
Output schema: class label derived from protein stability index. Mapping: low-valued = under 2, mid-valued = from 2 up to 3, high-valued = 3 and over

For orientation, consider the following solved cases.
QEGLLDRCVSFQARFAEKEELMEV: high-valued
QEGLLDRCVSFQARFPEKEELMLV: mid-valued
QEGLLDRCVHFQARFAEKEELMLV: low-valued
QEGLLDRCVSFQARFAEKSELMLV: mid-valued
QGGLLDRCVSFQARFAEKEELMLV: mid-valued

Lab log: QEGLLDRYVSFQARFAEKEELMLV — assign protein stability index category
high-valued

Which category fits this record: QEGMLDRCVSFQARFAEKEELMLV
mid-valued

Hi, small favor: classify QEGLLDRCVSFQARFAEKEELMAV by its protein stability index when you get a moment.
high-valued

Reference source for all entries: the supplement of paper PMC10567573
